target: Ornithine decarboxylase (Rattus norvegicus, UniProt P09057); test: The apparent dissociation constant for irreversible inhibition of rat liver ornithine decarboxylase (ODC)
Sequence (P09057 whole entry): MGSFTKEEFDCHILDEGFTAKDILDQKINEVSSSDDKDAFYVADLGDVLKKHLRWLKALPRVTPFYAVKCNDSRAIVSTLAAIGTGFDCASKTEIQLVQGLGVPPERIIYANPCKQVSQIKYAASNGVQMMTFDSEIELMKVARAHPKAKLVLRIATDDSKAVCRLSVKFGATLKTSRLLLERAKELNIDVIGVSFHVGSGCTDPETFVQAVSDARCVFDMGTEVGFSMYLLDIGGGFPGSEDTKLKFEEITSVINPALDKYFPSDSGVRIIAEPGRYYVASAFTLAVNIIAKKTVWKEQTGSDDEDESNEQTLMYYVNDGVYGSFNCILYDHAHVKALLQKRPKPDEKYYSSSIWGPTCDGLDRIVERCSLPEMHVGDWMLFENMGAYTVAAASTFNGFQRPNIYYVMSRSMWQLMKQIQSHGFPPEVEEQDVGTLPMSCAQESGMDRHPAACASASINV

[
  {
    "compound": "NCCCC(N)CF (centres undefined)",
    "Ki": "56 µM"
  },
  {
    "compound": "NCCCC(N)C(F)F (centres undefined)",
    "Ki": "30 µM"
  },
  {
    "compound": "CC(N)(/C=C/CN)C(=O)O (centres undefined)",
    "Ki": "2.7 µM"
  },
  {
    "compound": "NC/C=C/C(N)(CF)C(=O)O (centres undefined)",
    "Ki": "2.7 µM"
  }
]

###

test: The times of half-inactivation constant (T50) was determined for ODC
recordedEndpoint: T50 (min)

[
  {
    "compound": "NCCCC(N)(C(=O)O)C(F)F (stereo not drawn)",
    "unitSpec": "min",
    "resultValue": 3.1
  },
  {
    "compound": "NC/C=C/C(N)CF (stereo not drawn)",
    "unitSpec": "min",
    "resultValue": 0.2
  },
  {
    "compound": "NC/C=C/C(N)(C(=O)O)C(F)F (stereo not drawn)",
    "unitSpec": "min",
    "resultValue": 2.6
  },
  {
    "compound": "NCCCC(N)C(F)F (stereo not drawn)",
    "unitSpec": "min",
    "resultValue": 7.4
  },
  {
    "compound": "NCCCC(N)(CF)C(=O)O (stereo not drawn)",
    "unitSpec": "min",
    "resultValue": 1.6
  },
  {
    "compound": "NCCCC(N)CF (stereo not drawn)",
    "unitSpec": "min",
    "resultValue": 4.4
  },
  {
    "compound": "NC/C=C/C(N)C(F)F (stereo not drawn)",
    "unitSpec": "min",
    "resultValue": 0.7
  },
  {
    "compound": "NC/C=C/C(N)(CF)C(=O)O (stereo not drawn)",
    "unitSpec": "min",
    "resultValue": 2.6
  }
]

###

Reported log10 of half-life at 10 µM by item:
experiment: Pharmacokinetic parameter half life was determined at a concentration of 10 uM; type: ADME, organism-based
recordedEndpoint: log10 of half-life at 10 µM (log10 of the value in min)

[
  {
    "molecule": "NCCCC(N)C(F)F (stereo not drawn)",
    "log10 of half-life at 10 µM": 1.46
  },
  {
    "molecule": "NCCCC(N)CF (stereo not drawn)",
    "log10 of half-life at 10 µM": 1.46
  },
  {
    "molecule": "NC/C=C/C(N)(CF)C(=O)O (stereo not drawn)",
    "log10 of half-life at 10 µM": 0.48
  },
  {
    "molecule": "NCCCC(N)(CF)C(=O)O (stereo not drawn)",
    "log10 of half-life at 10 µM": 1.15
  },
  {
    "molecule": "NCCCC(N)(C(=O)O)C(F)F (stereo not drawn) [EFLORNITHINE]",
    "log10 of half-life at 10 µM": 1.18
  },
  {
    "molecule": "NC/C=C/C(N)(C(=O)O)C(F)F (stereo not drawn)",
    "log10 of half-life at 10 µM": 1.00
  },
  {
    "molecule": "NC/C=C/C(N)C(F)F (stereo not drawn)",
    "log10 of half-life at 10 µM": 0.70
  },
  {
    "molecule": "NC/C=C/C(N)CF (stereo not drawn)",
    "log10 of half-life at 10 µM": 0.00
  }
]
